Reported Endocytosis efficiency (%) by item:
# target_under_test: T1, human Nectin-4 (human, UniProt Q96NY8 32-510)
# T1 sequence (looked up): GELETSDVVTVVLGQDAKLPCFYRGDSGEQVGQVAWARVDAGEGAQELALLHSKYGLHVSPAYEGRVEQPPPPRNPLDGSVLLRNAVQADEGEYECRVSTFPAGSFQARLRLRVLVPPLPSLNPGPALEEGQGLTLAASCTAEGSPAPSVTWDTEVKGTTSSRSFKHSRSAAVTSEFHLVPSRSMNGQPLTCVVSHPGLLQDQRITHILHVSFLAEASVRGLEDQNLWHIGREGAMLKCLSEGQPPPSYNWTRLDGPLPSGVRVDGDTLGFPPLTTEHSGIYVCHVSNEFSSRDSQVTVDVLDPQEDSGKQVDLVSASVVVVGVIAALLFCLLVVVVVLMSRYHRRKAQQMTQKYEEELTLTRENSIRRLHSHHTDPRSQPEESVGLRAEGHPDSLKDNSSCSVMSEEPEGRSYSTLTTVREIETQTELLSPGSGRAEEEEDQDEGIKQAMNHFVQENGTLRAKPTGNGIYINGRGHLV
# measurement_description: cell-based or functional assay
Report as a plain number; the unit % is understood.

Qu. Consider the binder shown here: 42D20 hz20 (antibody, V domains shown) VH: QVQLQESGPGLVKPSETLSLTCTVSGFSLIDYGVSWIRQPPGKGLEWIGVIWGEGKIYYNSVLKSRVTISKDNSKSQVSLKLSSVTAADTAVYYCAKQGGLLFYAMDYWGQGTLVTVSS VL: DIVMTQSPDSLAVSLGERATINCKSSQSLLNSYSQKNYLAWYQQKPGQPPKLLIYFASTRESGVPDRFSGSGSGTDFTLTISSLQAEDVAVYYCQQHYNTPFTFGAGTKLELKR What is its recorded Endocytosis efficiency (%)?
Ans. 42

Qu. Consider the binder shown here: 42D20 hz03 (antibody, V domains shown, Humanized) VH: QVQLQESGPGLVKPSETLSLTCTVSGFSLIDYGVSWIRQPPGKGLEWIGVIWGDGKIYYNSVLKSRVTISVDTSKNQFSLKLSSVTAADTAVYYCARQGGLLFYAMDYWGQGTLVTVSS VL: DIVMTQSPDSLAVSLGERATINCKSSQSLLNTYSQKNYLAWYQQKPGQSPKLLIYFASTRESGVPDRFSGSGSETDFTLTISSLQAEDLAVYFCQQHYNTPFTFGAGTKLELKR What is its recorded Endocytosis efficiency (%)?
Ans. 41.1

Qu. Consider the binder shown here: 42D20 hz00 (antibody, V domains shown, Humanized) VH: QVQLQESGPGLVKPSETLSLTCTVSGFSLIDYGVSWIRQPPGKGLEWIGVIWGDGKIYYNSVLKSRVTISVDTSKNQFSLKLSSVTAADTAVYYCARQGGLLFYAMDYWGQGTLVTVSS VL: DIVMTQSPDSLAVSLGERATINCKSSQSLLNSYSQKNYLAWYQQKPGQPPKLLIYFASTRESGVPDRFSGSGSGTDFTLTISSLQAEDVAVYYCQQHYNTPFTFGAGTKLELKR What is its recorded Endocytosis efficiency (%)?
Ans. 39.1

Consider now this further binder.
Qu. Consider the binder shown here: chimeric antibody 42D20 xiIgG (antibody, V domains shown) VH: QVQLKESGPGLVAPSQSLSISCTVSGFSLIDYGVSWIRQPPGKGLEWLGVIWGDGKIYYNSVLKSRLSISKDNSKSQVFLKMNSLQTDDTAMYYCAKQGGLLFYAMDYWGQGTSVTVSS VL: DIVMTQSPSSLAMSVGQRVTMNCKSSQSLLNSYSQKNYLAWYQQKPGQSPKLLIYFASTRESGVPDRFIGSGSETDFTLTISSVQAEDLADYFCQQHYNTPFTFGSGTKLEIKR What is its recorded Endocytosis efficiency (%)?
Ans. 54
